Data origin, for the record: patent US11440905B2

This section presents molecules with their documented remaining activity at 1 µM values.
Target: mouse semaphorin 3A (Sema3A) (Mus musculus, UniProt O08665)
Sequence (O08665 21-772): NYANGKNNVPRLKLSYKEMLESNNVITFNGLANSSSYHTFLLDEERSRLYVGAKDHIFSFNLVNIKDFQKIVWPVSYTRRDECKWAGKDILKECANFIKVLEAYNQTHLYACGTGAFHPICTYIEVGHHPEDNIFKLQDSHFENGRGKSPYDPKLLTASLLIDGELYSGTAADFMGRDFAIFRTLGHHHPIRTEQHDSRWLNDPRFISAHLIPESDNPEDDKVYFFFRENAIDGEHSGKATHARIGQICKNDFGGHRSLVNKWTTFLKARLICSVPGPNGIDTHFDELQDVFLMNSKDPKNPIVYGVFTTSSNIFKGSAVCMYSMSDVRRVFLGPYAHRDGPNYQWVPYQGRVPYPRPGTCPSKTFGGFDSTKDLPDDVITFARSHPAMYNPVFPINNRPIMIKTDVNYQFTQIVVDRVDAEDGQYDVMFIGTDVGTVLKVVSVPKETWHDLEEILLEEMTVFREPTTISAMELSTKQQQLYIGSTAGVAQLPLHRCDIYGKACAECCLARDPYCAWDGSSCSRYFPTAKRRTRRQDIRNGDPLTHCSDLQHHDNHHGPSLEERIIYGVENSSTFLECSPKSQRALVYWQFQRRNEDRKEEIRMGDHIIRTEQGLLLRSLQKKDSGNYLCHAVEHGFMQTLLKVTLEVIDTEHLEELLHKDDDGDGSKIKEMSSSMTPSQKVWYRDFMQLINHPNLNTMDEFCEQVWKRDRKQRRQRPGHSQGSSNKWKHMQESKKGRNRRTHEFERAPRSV
Test: Inhibitory activity for the collapse activity caused by Sema3A (growth cone collapse assay, Test 1)
Assay type: cell-based
Conditions: 1 μM test compound; chick embryo dorsal root ganglion; 3 units/mL mouse Sema3A; smaller value = more potent inhibition; read-out: residual ratio (%) of Sema3A activity (collapse assay)

> print(dat)
                                   molecule                                    target            measurement.kind  observed.result
1  Cn1cc(-c2coc3cc(O)c(O)c(C(=O)OCC(O)CO)c3c2=O)c(=O)c2cc(O)c(O)cc21 (stereo not drawn) [Example 23]  mouse semaphorin 3A (Sema3A) (Mus musculus, UniProt O08665)  remaining activity at 1 µM            < 70%
2  Cc1nc2cc(O)c(O)cn2c(=O)c1-c1coc2cc(O)c(O)c(C(=O)OCc3cn(CC(=O)N[C@@H](CCC(=O)O)C(=O)O)nn3)c2c1=O [Example 17]  mouse semaphorin 3A (Sema3A) (Mus musculus, UniProt O08665)  remaining activity at 1 µM            90.1%

Next item in the queue.
Supply remaining activity at 1 µM value. Item: Cc1c(-c2coc3cc(O)c(O)c(C(=O)OCc4cn(CC(=O)N[C@@H](CCC(=O)O)C(=O)O)nn4)c3c2=O)c(=O)c2cc(O)c(O)cc2n1C [Example 8]
27.3%
